Just for reference, patent US20070027162A1 is where these values come from.

assay: Solubility determination in a variety of solvents; format: physicochemical; settings: solvent Water, 23° C.; read-out: Solubility at 23° C.
metricName: solubility

q: I would be grateful if you could share the reported solubility for C[C@H](CN(C(=O)c1ccc(C#N)cc1)c1ccccn1)N1CCN(c2cccc3c2OCCO3)CC1.Cl .
a: 49 mg/mL

* * *

assay: Solubility determination in a variety of solvents; format: physicochemical; conditions: organic solvent or mixture; solvent Ethyl acetate, 23° C.; read-out: Solubility at 23° C.
metricName: solubility (mg/mL)
Give just the number in mg/mL; leave the unit off.

q: I would be grateful if you could share the reported solubility for C[C@H](CN(C(=O)c1ccc(C#N)cc1)c1ccccn1)N1CCN(c2cccc3c2OCCO3)CC1.Cl .
a: 16

* * *

assay: Solubility determination in a variety of solvents; type: physicochemical; details: organic solvent or mixture; solvent Ethyl acetate, 50° C.; read-out: Solubility at 50° C.
metricName: solubility (mg/mL)
Give just the number in mg/mL; leave the unit off.

q: I would be grateful if you could share the reported solubility for C[C@H](CN(C(=O)c1ccc(C#N)cc1)c1ccccn1)N1CCN(c2cccc3c2OCCO3)CC1.Cl .
a: 24

* * *

test: Solubility determination in a variety of solvents; format: physicochemical; settings: organic solvent or mixture; solvent MeOH, 50° C.; read-out: Solubility at 50° C.
metricName: solubility
State the result as a value with its unit after it.

q: I would be grateful if you could share the reported solubility for C[C@H](CN(C(=O)c1ccc(C#N)cc1)c1ccccn1)N1CCN(c2cccc3c2OCCO3)CC1.Cl [Formula I] .
a: 989 mg/mL

* * *

assay: Solubility determination in a variety of solvents; format: physicochemical; settings: organic solvent or mixture; solvent DMSO, 50° C.; read-out: Solubility at 50° C.
metricName: solubility
State the result as a value with its unit after it.

q: I would be grateful if you could share the reported solubility for C[C@H](CN(C(=O)c1ccc(C#N)cc1)c1ccccn1)N1CCN(c2cccc3c2OCCO3)CC1.Cl .
a: 337 mg/mL

* * *

experiment: Solubility determination in a variety of solvents; type: physicochemical; settings: organic solvent or mixture; solvent DMSO, 23° C.; read-out: Solubility at 23° C.
metricName: solubility (mg/mL)
Give just the number in mg/mL; leave the unit off.

q: I would be grateful if you could share the reported solubility for C[C@H](CN(C(=O)c1ccc(C#N)cc1)c1ccccn1)N1CCN(c2cccc3c2OCCO3)CC1.Cl .
a: 246

* * *

assay: Solubility determination in a variety of solvents; format: physicochemical; conditions: organic solvent or mixture; solvent Heptane, 23° C.; read-out: Solubility at 23° C.
metricName: solubility (µg/mL)
Give just the number in µg/mL; leave the unit off.

q: I would be grateful if you could share the reported solubility for C[C@H](CN(C(=O)c1ccc(C#N)cc1)c1ccccn1)N1CCN(c2cccc3c2OCCO3)CC1.Cl .
a: 1000

* * *

assay: Solubility determination in a variety of solvents; type: physicochemical; details: organic solvent or mixture; solvent MeOH, 23° C.; read-out: Solubility at 23° C.
metricName: solubility
State the result as a value with its unit after it.

q: I would be grateful if you could share the reported solubility for C[C@H](CN(C(=O)c1ccc(C#N)cc1)c1ccccn1)N1CCN(c2cccc3c2OCCO3)CC1.Cl .
a: 378 mg/mL
